This collection of values is drawn from ChEMBL document CHEMBL1817563.

Assay: Selectivity ratio of IC50 for MMP-2 to IC50 for pig kidney microsomal APN
Ratio IC50 values for the molecules below.
Output spec: single numeric token, no unit.

Reference set (5 entries):
> print(dat)
                                test.smiles  measure.name  numeric.readout
1  Nc1ccc([C@H](O)[C@@H](N)CNC(=O)[C@@H](N)Cc2ccc(O)cc2)cc1    Ratio IC50                1
2  CC(C)C[C@H](N)C(=O)NC[C@H](N)[C@@H](O)c1ccc(N)cc1    Ratio IC50              1.9
3  N[C@@H](Cc1ccc(O)cc1)C(=O)NC[C@H](N)[C@@H](O)c1ccc(I)cc1    Ratio IC50                2
4  N[C@H](Cc1ccccc1)C(=O)N[C@H](Cc1ccccc1)C(=O)NC[C@H](N)[C@@H](O)c1ccc([N+](=O)[O-])cc1    Ratio IC50              0.3
5  N[C@@H](CO)C(=O)NC[C@H](N)[C@@H](O)c1ccc([N+](=O)[O-])cc1    Ratio IC50              0.8

Now turn to the next molecule.
Q. Recorded Ratio IC50 for `NC[C@H](O)C(=O)N[C@H](Cc1ccccc1)C(=O)NC[C@H](N)[C@@H](O)c1ccc([N+](=O)[O-])cc1` , please?
A. 6.3
